Each entry below carries its reported interaction score.
tested.system: T1, 4H1446-bH
T1 chain: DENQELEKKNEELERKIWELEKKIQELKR
measurement.description: two-hybrid library CCNG1;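 further: natural log of median RNA to DNA barcode read ratio; higher means stronger binding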
A bare number is all that is needed in reply.

DENQELEKENEELERKIWELKKEIQELER [4H1193-bH] :: 0.131
DENQELEKENEELKRKIWELKKEIQELER [4H1257-bH] :: -0.833
DENQELEKKNEELERKIWELEKKIQELKR [4H1446-bH] :: 0.821
DENQELEKKIEELERKIWELKKKNQELKR [4H1328-bH] :: 0.331

**Q:** What value of measured interaction score is listed for DENQELEKKIEELKRENWELKKEIQELER [4H1369-bH] ?
**A:** -1.19
